Molecular target: CDK2/Cyclin A (Homo sapiens, UniProt P24941)
Construct: purchased Invitrogen PV6290
Experiment: Enzymatic assay for CDK2 (FRET based LANCE Ultra kinase assay)
Format: biochemical
Settings: read-out: CDK2 enzymatic activity (IC50 range)
Protocol: Enzymatic Binding Assay Protocol for CDK1, CDK2, CDK5 and CDK7 Inhibition activity of the respective compound on CDK kinase under Km value of ATP was tested in FRET based The LANCE® Ultra kinase assay (Perkin Elmer), which uses a ULight™-labeled peptide substrate and an appropriate Europium-labeled anti-phospho-antibody. […] Data was analyzed using XL Fit software.
Quick list: IC50 per entry.

Answered cases to consult:
* CC(=O)NC1CCc2nn(-c3ccccc3CNc3nc(N4CCC(N)CC4)nc4c(C(C)C)cnn34)cc2C1 (stereo not drawn) | > 1 µM
* CC(C)c1cnn2c(NCc3ccccc3OCc3ccccc3)nc(N3CCC(N)CC3)nc12 | > 1 µM
* CNC(=O)c1cccnc1CNc1nc(N2CCC(N)CC2)nc2c(C(C)(C)C)cnn12 | > 1 µM
* CC(C)c1cnn2c(NCc3ccccc3N3Cc4ccccc4C3)nc(N3CCC(N)CC3)nc12 | 0.1 to 1 µM
* Cc1ccc(-n2cccn2)cc1CNc1nc(N2CCC(N)CC2)nc2c(C(C)C)cnn12 | > 1 µM

Request: Would you mind telling me what IC50 value was observed for "CC(C)c1cnn2c(NCc3ccccc3-n3ccc(-c4ccccc4)n3)nc(N3CCC(N)CC3)nc12" ?
Response: > 1 µM

Request: Would you mind telling me what IC50 value was observed for "CC1CCN(c2cnn(-c3cccc(Cl)c3CNc3nc(N4CCC(N)CC4)nc4c(C(C)C)cnn34)c2)CC1" ?
Response: > 1 µM

Request: Would you mind telling me what IC50 value was observed for "CC(C)c1cnn2c(NCc3ccccc3-n3cccn3)nc(-c3ccc(C4CCNCC4)cc3)nc12" ?
Response: 0.1 to 1 µM

Request: Would you mind telling me what IC50 value was observed for "CC(C)c1cnn2c(NCc3c(Cl)cccc3-n3ccc(CO)n3)nc(N3CCC(N)CC3)nc12" ?
Response: > 1 µM

Request: Would you mind telling me what IC50 value was observed for CC(C)c1cnn2c(NCc3ccccc3-c3cc4ccccc4[nH]3)nc(N3CCCC(N)C3)nc12 (racemic) ?
Response: > 1 µM

Request: Would you mind telling me what IC50 value was observed for "CC(C)c1cnn2c(NCc3ccccc3-n3ccc(CO)n3)nc(N3CCC(N)CC3)nc12" ?
Response: 0.1 to 1 µM

Request: Would you mind telling me what IC50 value was observed for "CC(C)c1cnn2c(N[C@@H](C)c3ccccc3-n3cccn3)nc(N3CCC(N)CC3)nc12" ?
Response: > 1 µM
